test system: Klebsiella pneumoniae; test: Antibacterial activity against Klebsiella pneumoniae ATCC BAA-2146 expressing NDM-1 after 18 hrs by 2 fold serial dilution method; format: functional; details: ATCC BAA-2146, 18 h
Numbered stars: 1 amine (or outer) side, 2 acyl side, 3 side chain; on linkers, the order of the positions; unused ones are H or OH. Bridge positions count the residues as written; N and C are the ends. Square brackets hold non-standard residues; d marks the D form. Peptide text beside a SMILES is read from it. * marks the point of attachment. ξ: configuration not given here. ξGly(octyl) = CCCCCCCCC(N)C(=O)O; NH(2-ClPh) = Clc1ccccc1N*; dDab = NCC[C@@H](N)C(=O)O; Octanoyl = CCCCCCCC(=O)*; Dab = NCC[C@H](N)C(=O)O; CO = O=C([*:1])[*:2]
Measurement type: MIC (µg/mL)

CCCCCCCC(=O)N[C@@H](CCN)C(=O)N[C@H](C(=O)N[C@@H](CCN)C(=O)N[C@H]1CCNC(=O)[C@H]([C@@H](C)O)NC(=O)[C@H](CCN)NC(=O)[C@H](CCNC(=O)[C@@H](N)CCCNC(=N)N)NC(=O)[C@H](CC(C)C)NC(=O)[C@@H](Cc2ccccc2)NC(=O)[C@H](CCN)NC1=O)[C@@H](C)O    1
CC(C)C[C@@H]1NC(=O)[C@@H](Cc2ccccc2)NC(=O)[C@H](CCN)NC(=O)[C@@H](NC(=O)[C@@H](CCN)NC(=O)[C@@H](NC(=O)[C@H](CCN)NC(=O)Nc2ccccc2Cl)[C@@H](C)O)CCNC(=O)[C@H]([C@@H](C)O)NC(=O)[C@H](CCN)NC(=O)[C@H](CCN)NC1=O ({NH(2-ClPh)-CO}-[Dab]T[dDab][Dab][Dab][dF]L[Dab][Dab]T; lactam 4-C)    1
CCCCCCCC(=O)N[C@@H](CCN)C(=O)N[C@H](C(=O)N[C@@H](CCN)C(=O)N[C@H]1CCNC(=O)[C@H]([C@@H](C)O)NC(=O)[C@H](CCN)NC(=O)[C@H](CCN)NC(=O)[C@H](CC(C)C)NC(=O)[C@@H](Cc2ccccc2)NC(=O)[C@H](CCN)NC1=O)[C@@H](C)O (Octanoyl-[Dab]T[Dab][Dab][Dab][dF]L[Dab][Dab]T; lactam 4-C)    0.5
CCCCCCCC(=O)N[C@@H](CCN)C(=O)N[C@H](C(=O)N[C@H](CCN)C(=O)N[C@H]1CCNC(=O)[C@H]([C@@H](C)O)NC(=O)[C@H](CCN)NC(=O)[C@H](CCN)NC(=O)[C@H](CC(C)C)NC(=O)[C@@H](Cc2ccccc2)NC(=O)[C@H](CCN)NC1=O)[C@@H](C)O (Octanoyl-[Dab]T[dDab][Dab][Dab][dF]L[Dab][Dab]T; lactam 4-C)    4
CCCCCCCC(=O)N[C@@H](CCN)C(=O)N[C@H](C(=O)N[C@@H](CCN)C(=O)N[C@H]1CCNC(=O)[C@H]([C@@H](C)O)NC(=O)[C@H](CCN)NC(=O)[C@H](CCNC(=O)[C@@H](N)CCC(=O)O)NC(=O)[C@H](CC(C)C)NC(=O)[C@@H](Cc2ccccc2)NC(=O)[C@H](CCN)NC1=O)[C@@H](C)O (Octanoyl-[Dab]T[Dab][Dab][Dab][dF]L[Dab](Glu)[Dab]T; lactam 4-C)    4
CCCCCCCCC1NC(=O)[C@H](CCN)NC(=O)[C@@H](NC(=O)[C@H](CCN)NC(=O)[C@@H](NC(=O)[C@H](CCN)NC(=O)CCCCCCC)[C@@H](C)O)CCNC(=O)[C@H]([C@@H](C)O)NC(=O)[C@H](CCN)NC(=O)[C@H](CCN)NC(=O)[C@H](CC(C)C)NC1=O (stereo partly specified) (Octanoyl-[Dab]T[Dab][Dab][Dab][ξGly(octyl)]L[Dab][Dab]T; lactam 4-C)    1

###

system: Acinetobacter baumannii; assay: Antibacterial activity against clinical isolate carbapenem and polymyxin resistant Acinetobacter baumannii Ptyela 100734512:2 after 18 hrs by 2 fold serial dilution method; type: functional; details: Ptyela 100734512:2, 18 h
Bridge positions count the residues as written; N and C are the ends. Square brackets hold non-standard residues; d marks the D form. Peptide text beside a SMILES is read from it. * marks the point of attachment. dDab = NCC[C@@H](N)C(=O)O; Octanoyl = CCCCCCCC(=O)*; Dab = NCC[C@H](N)C(=O)O
Measurement type: MIC

CCCCCCCC(=O)N[C@@H](CCN)C(=O)N[C@H](C(=O)N[C@H](CCN)C(=O)N[C@H]1CCNC(=O)[C@H]([C@@H](C)O)NC(=O)[C@H](CCN)NC(=O)[C@H](CCN)NC(=O)[C@H](CC(C)C)NC(=O)[C@@H](Cc2ccccc2)NC(=O)[C@H](CCN)NC1=O)[C@@H](C)O (Octanoyl-[Dab]T[dDab][Dab][Dab][dF]L[Dab][Dab]T; lactam 4-C)    > 32 µg/mL

###

tested on: Pseudomonas aeruginosa; test: Antibacterial activity against clinical isolate polymyxin resistant Pseudomonas aeruginosa FADDI-PA070 after 18 hrs by 2 fold serial dilution method; format: functional; conditions: FADDI-PA070, 18 h
Numbered stars: 1 amine (or outer) side, 2 acyl side, 3 side chain; on linkers, the order of the positions; unused ones are H or OH. Bridge positions count the residues as written; N and C are the ends. Square brackets hold non-standard residues; d marks the D form. Peptide text beside a SMILES is read from it. * marks the point of attachment. X1 = c1ccc(-c2ccc(N*)cc2)cc1; Dab = NCC[C@H](N)C(=O)O; CO = O=C([*:1])[*:2]
Measurement type: MIC (µg/mL)

CC(C)C[C@@H]1NC(=O)[C@@H](Cc2ccccc2)NC(=O)[C@H](CCN)NC(=O)[C@@H](NC(=O)[C@H](CCN)NC(=O)[C@@H](NC(=O)[C@H](CCN)NC(=O)Nc2ccc(-c3ccccc3)cc2)[C@@H](C)O)CCNC(=O)[C@H]([C@@H](C)O)NC(=O)[C@H](CCN)NC(=O)[C@H](CCN)NC1=O ({X1-CO}-[Dab]T[Dab][Dab][Dab][dF]L[Dab][Dab]T; lactam 4-C)    16

###

tested on: Klebsiella pneumoniae; assay: Antibacterial activity against Klebsiella pneumoniae ATCC BAA-2146 expressing NDM-1 after 18 hrs by 2 fold serial dilution method; type: functional; conditions: ATCC BAA-2146, 18 h
Numbered stars: 1 amine (or outer) side, 2 acyl side, 3 side chain; on linkers, the order of the positions; unused ones are H or OH. Bridge positions count the residues as written; N and C are the ends. Square brackets hold non-standard residues; d marks the D form. Peptide text beside a SMILES is read from it. * marks the point of attachment. X1 = c1ccc(-c2ccc(N*)cc2)cc1; hSer = N[C@@H](CCO)C(=O)O; Octanoyl = CCCCCCCC(=O)*; Dab = NCC[C@H](N)C(=O)O; CO = O=C([*:1])[*:2]
Measurement type: MIC (µg/mL)

CCCCCCCC(=O)N[C@@H](CCN)C(=O)N[C@H](C(=O)N[C@@H](CCN)C(=O)N[C@H]1CCNC(=O)[C@H]([C@@H](C)O)NC(=O)[C@H](CCN)NC(=O)[C@H](CCN)NC(=O)[C@H](CC(C)C)NC(=O)[C@@H](Cc2ccccc2)NC(=O)[C@H](CCO)NC1=O)[C@@H](C)O (Octanoyl-[Dab]T[Dab][Dab][hSer][dF]L[Dab][Dab]T; lactam 4-C)    32
CC(C)C[C@@H]1NC(=O)[C@@H](Cc2ccccc2)NC(=O)[C@H](CCN)NC(=O)[C@@H](NC(=O)[C@H](CCN)NC(=O)[C@@H](NC(=O)[C@H](CCN)NC(=O)Nc2ccc(-c3ccccc3)cc2)[C@@H](C)O)CCNC(=O)[C@H]([C@@H](C)O)NC(=O)[C@H](CCN)NC(=O)[C@H](CCN)NC1=O ({X1-CO}-[Dab]T[Dab][Dab][Dab][dF]L[Dab][Dab]T; lactam 4-C)    1

###

Recorded MIC for the following molecules
tested on: Acinetobacter baumannii; experiment: Antibacterial activity against clinical isolate carbapenem and polymyxin resistant Acinetobacter baumannii Ptyela 100734512:2 after 18 hrs by 2 fold serial dilution method; format: functional; conditions: Ptyela 100734512:2, 18 h
Bridge positions count the residues as written; N and C are the ends. Square brackets hold non-standard residues; d marks the D form. Peptide text beside a SMILES is read from it. * marks the point of attachment. Benzoyl(4-OPh) = O=C(c1ccc(Oc2ccccc2)cc1)*; Phe(4-NH2) = Nc1ccc(C[C@H](N)C(=O)O)cc1; Octanoyl = CCCCCCCC(=O)*; Dab = NCC[C@H](N)C(=O)O
Measurement type: MIC

CC(C)C[C@@H]1NC(=O)[C@@H](Cc2ccccc2)NC(=O)[C@H](CCN)NC(=O)[C@@H](NC(=O)[C@H](CCN)NC(=O)[C@@H](NC(=O)[C@H](CCN)NC(=O)c2ccc(Oc3ccccc3)cc2)[C@@H](C)O)CCNC(=O)[C@H]([C@@H](C)O)NC(=O)[C@H](CCN)NC(=O)[C@H](CCN)NC1=O ({Benzoyl(4-OPh)}-[Dab]T[Dab][Dab][Dab][dF]L[Dab][Dab]T; lactam 4-C)    16 µg/mL
CCCCCCCC(=O)N[C@@H](CCN)C(=O)N[C@H](C(=O)NCC(=O)N[C@H]1CCNC(=O)[C@H]([C@@H](C)O)NC(=O)[C@H](CCN)NC(=O)[C@H](CCN)NC(=O)[C@H](CC(C)C)NC(=O)[C@@H](Cc2ccccc2)NC(=O)[C@H](CCN)NC1=O)[C@@H](C)O (Octanoyl-[Dab]TG[Dab][Dab][dF]L[Dab][Dab]T; lactam 4-C)    > 32 µg/mL
CCCCCCCC(=O)N[C@@H](CCN)C(=O)N[C@H](C(=O)N[C@@H](CCN)C(=O)N[C@H]1CCNC(=O)[C@H]([C@@H](C)O)NC(=O)[C@H](CCN)NC(=O)[C@H](CCN)NC(=O)[C@H](CC(C)C)NC(=O)[C@@H](Cc2ccccc2)NC(=O)[C@H](Cc2ccc(N)cc2)NC1=O)[C@@H](C)O (Octanoyl-[Dab]T[Dab][Dab][Phe(4-NH2)][dF]L[Dab][Dab]T; lactam 4-C)    > 32 µg/mL
